# target_system: human APJ receptor (Homo sapiens, UniProt P35414)
# Construct: expressed in transfected cells
# Sequence (P35414 1-380): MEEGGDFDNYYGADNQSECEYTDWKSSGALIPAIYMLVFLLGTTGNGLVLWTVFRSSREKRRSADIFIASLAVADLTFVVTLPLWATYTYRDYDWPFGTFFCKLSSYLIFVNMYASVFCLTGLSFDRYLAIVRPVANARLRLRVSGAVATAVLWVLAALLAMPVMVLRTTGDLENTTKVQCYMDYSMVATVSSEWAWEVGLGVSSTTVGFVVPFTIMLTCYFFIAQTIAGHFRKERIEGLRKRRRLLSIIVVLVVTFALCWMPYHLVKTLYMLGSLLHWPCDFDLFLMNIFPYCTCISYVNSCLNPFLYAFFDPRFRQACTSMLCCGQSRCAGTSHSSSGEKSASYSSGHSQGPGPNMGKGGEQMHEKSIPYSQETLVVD
# assay_method_text: [35S] GTPγS assay, human APJ receptor
# Assay type: biochemical
# run_conditions: Table 16
Starred links: 1 amine or outer side, 2 acyl side, 3 side chain; linkers in the order of their positions; H or OH if unused. Non-standard residues stand in square brackets, D forms with d. Residues, ends and D or L forms follow the SMILES beside them. *: point of attachment. Phe(4-Cl) = N[C@@H](Cc1ccc(Cl)cc1)C(=O)O; γGlu = O=C(O)[C@H](CCC(=O)[*:2])N[*:1]; NMeR = CN[C@@H](CCCNC(=N)N)C(=O)O; Tridecanoyl = CCCCCCCCCCCCC(=O)*; Nle = CCCC[C@H](N)C(=O)O; AEEA = NCCOCCOCC(=O)O

molecule	EC50 (nM)
CCCCCCCCCCCCC(=O)N[C@@H](CCC(=O)NCCOCCOCC(=O)NCCOCCOCC(=O)N[C@@H](CCC(N)=O)C(=O)N[C@@H](CCC(=O)O)C(=O)N1CCC[C@H]1C(=O)N(C)[C@@H](CCCNC(=N)N)C(=O)N[C@@H](CC(C)C)C(=O)N[C@@H](CO)C(=O)N[C@@H](Cc1c[nH]cn1)C(=O)N[C@@H](CCCCN)C(=O)NCC(=O)N1CCC[C@H]1C(=O)N[C@@H](CCCC)C(=O)N1CCC[C@H]1C(=O)N[C@@H](Cc1ccc(Cl)cc1)C(=O)O)C(=O)O [compound 475] ({Tridecanoyl-γGlu-AEEA-AEEA}-QEP[NMeR]LSHKGP[Nle]P[Phe(4-Cl)]-OH)	10.3
CCCCCCCCCCCCC(=O)N[C@@H](CCC(=O)NCCOCCOCC(=O)NCCOCCOCC(=O)N[C@@H](CCC(N)=O)C(=O)N[C@@H](CCCNC(=N)N)C(=O)N1CCC[C@H]1C(=O)N(C)[C@@H](CCCCNC(=N)N)C(=O)N[C@@H](CC(C)C)C(=O)N[C@@H](CO)C(=O)N[C@@H](Cc1c[nH]cn1)C(=O)N[C@@H](CCCCN)C(=O)NCC(=O)N1CCC[C@H]1C(=O)N[C@@H](CCCC)C(=O)N1CCC[C@H]1C(=O)N[C@@H](Cc1ccc2ccccc2c1)C(=O)O)C(=O)O [compound 471]	0.0229
CCCCCCCCCCCCC(=O)N[C@@H](CCC(=O)NCCOCCOCC(=O)NCCOCCOCC(=O)N[C@@H](CCC(N)=O)C(=O)N[C@@H](CCCNC(=N)N)C(=O)N1CCC[C@H]1C(=O)N[C@@H](CCC(=O)O)C(=O)N[C@@H](CC(C)C)C(=O)N[C@@H](CO)C(=O)N[C@@H](Cc1c[nH]cn1)C(=O)N[C@@H](CCCCN)C(=O)NCC(=O)N1CCC[C@H]1C(=O)N[C@@H](CCCC)C(=O)N1CCC[C@H]1C(=O)N[C@@H](Cc1ccc(Cl)cc1)C(=O)O)C(=O)O [compound 477] ({Tridecanoyl-γGlu-AEEA-AEEA}-QRPELSHKGP[Nle]P[Phe(4-Cl)]-OH)	0.423

* * *

EC50 reference
# target_system: human APJ receptor (Homo sapiens)
# Construct: expressed in transfected cells
# Sequence (P35414 1-380): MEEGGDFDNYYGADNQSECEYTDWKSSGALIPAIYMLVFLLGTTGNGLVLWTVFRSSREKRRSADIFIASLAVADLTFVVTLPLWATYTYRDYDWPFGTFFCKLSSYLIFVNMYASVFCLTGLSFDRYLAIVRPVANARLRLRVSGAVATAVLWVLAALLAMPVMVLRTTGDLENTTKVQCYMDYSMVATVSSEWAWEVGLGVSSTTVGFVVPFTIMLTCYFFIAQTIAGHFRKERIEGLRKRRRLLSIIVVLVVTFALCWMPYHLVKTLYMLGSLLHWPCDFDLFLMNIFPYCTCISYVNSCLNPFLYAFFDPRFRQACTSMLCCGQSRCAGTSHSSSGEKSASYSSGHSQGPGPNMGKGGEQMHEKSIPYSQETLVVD
# assay_method_text: [35S] GTPγS assay, human APJ receptor
# Assay type: biochemical
# run_conditions: human APJ receptor

molecule	EC50
CCCCCCCCCCCCC(=O)N[C@@H](CCC(=O)NCCOCCOCC(=O)NCCOCCOCC(=O)N[C@@H](CC(N)=O)CC(=O)N[C@@H](CCCNC(=N)N)C(=O)N1CCC[C@H]1C(=O)N(C)[C@@H](CCCNC(=N)N)C(=O)N[C@@H](CC(C)C)C(=O)N[C@@H](CO)C(=O)N[C@@H](Cc1c[nH]cn1)C(=O)N[C@@H](CCCCN)C(=O)NCC(=O)N1CCC[C@H]1C(=O)N[C@@H](CCCC)C(=O)N1CCC[C@H]1C(=O)N[C@@H](Cc1ccc(Cl)cc1)C(=O)O)C(=O)O	0.0526 nM
CCCCCCCCCCCCCCCC(=O)N[C@@H](CCC(=O)NCCOCCOCC(=O)NCCOCCOCC(=O)N[C@H](CCC(N)=O)C(=O)N[C@@H](CCCNC(=N)N)C(=O)N1CCC[C@H]1C(=O)N(C)[C@@H](CCCNC(=N)N)C(=O)N[C@@H](CC1CCCCC1)C(=O)N[C@@H](CO)C(=O)N[C@@H](Cc1c[nH]cn1)C(=O)N[C@@H](CCCCN)C(=O)NCC(=O)N1CCCC[C@H]1C(=O)N[C@@H](CCCC)C(=O)N1CCCC(C(=O)N[C@@H](Cc2ccc(Cl)cc2)C(=O)O)C1)C(=O)O (single isomer, unassigned)	1.52 nM

All values here come from patent US11807693B2.
